In this section, each of the compounds is paired with its reported GI50.
Test system: T47D
Method: NCI tumour cell line growth inhibition, 48 h
The source made the active and inactive calls. Cut-off read from the data, not from the text of the source: active = GI50 up to about 1.1 µM and inactive = higher.
Quantity measured: GI50

CC(C)c1ccccc1[S+]([O-])c1ccccc1C(C)(C)O (centres undefined) | > 100 µM (inactive)
C=C1C(=O)OC2CC(C)C3(O)CCC(=O)C3(C)CC12 (centres undefined) | 40.4 µM (inactive)
COc1cc(C2c3cc4c(cc3OC(O)C2C)OCO4)cc(OC)c1O (centres undefined) | 7.64 µM (inactive)
CCOc1nc(N)nc(C)c1/N=N/c1ccc(Cl)cc1 | 73.8 µM (inactive)
CC(=O)Nc1cc2cc(NS(=O)(=O)c3cc(C(F)(F)F)cc(C(F)(F)F)c3)ccc2oc1=O | > 100 µM (inactive)
O=C(c1ccc([N+](=O)[O-])cc1)N1CCCC1 | > 100 µM (inactive)
CSc1c(C#N)c(=O)n(N)c2c1c(C)nn2-c1ccccc1 | 25.8 µM (inactive)
O=C(Cl)C1=C(c2ccccc2)C1c1ccccc1 (centres undefined) | > 100 µM (inactive)
CC(C)(C)c1cc(OCc2nnc(S)n2N)c(Cl)cc1OCc1nnc(S)n1N | 30.6 µM (inactive)
